The values you see were collected from ChEMBL document CHEMBL5038665.

The reader will find pIC50 measurements below, all made with Receptor-type tyrosine-protein kinase FLT3 (Homo sapiens).
Sequence (P36888 whole entry): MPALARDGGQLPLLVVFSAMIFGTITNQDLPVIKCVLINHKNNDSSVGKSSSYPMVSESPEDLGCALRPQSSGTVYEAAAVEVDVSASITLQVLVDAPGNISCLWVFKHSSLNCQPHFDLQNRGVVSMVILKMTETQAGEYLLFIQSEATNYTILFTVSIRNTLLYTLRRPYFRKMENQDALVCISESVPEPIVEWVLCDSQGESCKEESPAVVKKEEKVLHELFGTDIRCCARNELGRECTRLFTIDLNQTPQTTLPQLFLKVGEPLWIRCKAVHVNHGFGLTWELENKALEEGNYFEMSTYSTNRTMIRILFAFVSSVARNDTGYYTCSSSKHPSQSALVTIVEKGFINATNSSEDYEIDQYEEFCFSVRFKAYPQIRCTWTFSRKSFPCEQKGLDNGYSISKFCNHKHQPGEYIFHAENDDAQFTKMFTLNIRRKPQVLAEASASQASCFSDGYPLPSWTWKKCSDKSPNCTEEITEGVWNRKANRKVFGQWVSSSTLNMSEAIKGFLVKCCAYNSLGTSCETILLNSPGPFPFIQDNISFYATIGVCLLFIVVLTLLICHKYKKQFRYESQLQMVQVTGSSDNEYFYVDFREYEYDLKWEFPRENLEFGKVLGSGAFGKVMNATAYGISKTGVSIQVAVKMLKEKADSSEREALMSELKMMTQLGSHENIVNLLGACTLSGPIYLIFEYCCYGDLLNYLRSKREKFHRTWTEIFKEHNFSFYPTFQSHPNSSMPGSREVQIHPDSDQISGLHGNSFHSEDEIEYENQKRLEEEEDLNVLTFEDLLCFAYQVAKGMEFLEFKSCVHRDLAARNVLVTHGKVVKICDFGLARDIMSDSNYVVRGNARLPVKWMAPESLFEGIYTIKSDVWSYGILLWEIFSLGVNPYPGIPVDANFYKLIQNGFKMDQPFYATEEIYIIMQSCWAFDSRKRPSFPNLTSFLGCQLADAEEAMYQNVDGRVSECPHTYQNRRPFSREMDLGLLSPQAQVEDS
For clarity, pIC50 is expressed as the negative log10 of concentration in mol/L.

>  <smiles text>
COc1ccc(CNc2ccc3c(c2)ncn3-c2ccccc2)cc1OC

>  <pIC50>
7.52

$$$$

Next, consider the following compound.
Sample COc1cc(CNc2ccc3c(c2)ncn3-c2ccccc2)ccc1OCCO ; pIC50 observed: 7.07

* * *

Experiment: Tmax in 12 hrs fasted Sprague-Dawley rat at 15 mg/kg, po measured upto 24 hrs by LC-MS analysis
Assay type: ADME, organism-based
Settings: in vivo
assay readout: Tmax (min)
Quick reminder: number only, in min, skip the unit.

In plain terms, COc1cc(CNc2ccc3c(c2)ncn3-c2ccccc2)ccc1OCCO has a documented Tmax of 39
